study system: D-2 receptor (Rattus norvegicus, UniProt P61169)
Construct: Striatal tissue was excised, pooled, and homogenized; from tissue; host or cells: rat striatum, washed membrane pellet (male Sprague-Dawley rats, Charles River)
Sequence (P61169 whole entry): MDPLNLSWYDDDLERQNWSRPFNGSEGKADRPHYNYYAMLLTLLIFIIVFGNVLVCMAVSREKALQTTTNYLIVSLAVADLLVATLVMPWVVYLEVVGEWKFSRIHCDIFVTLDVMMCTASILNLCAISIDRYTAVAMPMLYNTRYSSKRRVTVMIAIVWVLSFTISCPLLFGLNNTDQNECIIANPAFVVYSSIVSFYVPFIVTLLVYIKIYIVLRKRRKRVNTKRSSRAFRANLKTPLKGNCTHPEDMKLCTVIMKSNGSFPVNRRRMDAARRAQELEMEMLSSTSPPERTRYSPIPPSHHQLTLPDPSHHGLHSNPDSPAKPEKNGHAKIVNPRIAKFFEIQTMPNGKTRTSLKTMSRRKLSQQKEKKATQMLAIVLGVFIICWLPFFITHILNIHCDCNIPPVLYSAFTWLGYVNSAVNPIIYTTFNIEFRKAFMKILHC
assay remarks: Competitive inhibition assay, displacement of 3H-spiperone (D-2 receptor binding)
Set-up: species or system rat (male Sprague-Dawley, striatal tissue)
pKi: −log10 of the molar value.
readout name: pKi

{"columns": ["compound", "pKi"],
 "data": [
  ["COc1cc2c(cc1O)CCN(C)[C@H]1CCc3ccccc3[C@H]21 (relative stereo) [CH2, 1, trans, HO, CH3O]", "< 4.00"],
  ["COc1cc2c(cc1O)[C@H]1c3ccccc3CC[C@H]1N(C)CC2 (relative stereo) [CH2, 1, cis, CH3O, OH]", "< 4.00"]
]}

Please examine the following record next.
Quick one: pKi for COc1cc2c(cc1O)CCN(C)[C@@H]1CCc3ccccc3[C@H]21 (relative stereo) [CH2, 1, cis, HO, CH3O] ?
< 4.00

Provenance of the data: patent US4973586A
